pEC50 listing for selected compounds.
target: short form of the GPR120 receptor (GPR120S) (Homo sapiens); assay: Human GPR120 DiscoveRx PathHunter Beta-Arrestin assay, Procedure β-arrestin B; conditions: PathHunter CHO-K1 GPR120S β-Arrestin cell line, 5000 cells/well, read-out: hGPR120 β-arrestin B EC50
Sequence (Q5NUL3 whole entry): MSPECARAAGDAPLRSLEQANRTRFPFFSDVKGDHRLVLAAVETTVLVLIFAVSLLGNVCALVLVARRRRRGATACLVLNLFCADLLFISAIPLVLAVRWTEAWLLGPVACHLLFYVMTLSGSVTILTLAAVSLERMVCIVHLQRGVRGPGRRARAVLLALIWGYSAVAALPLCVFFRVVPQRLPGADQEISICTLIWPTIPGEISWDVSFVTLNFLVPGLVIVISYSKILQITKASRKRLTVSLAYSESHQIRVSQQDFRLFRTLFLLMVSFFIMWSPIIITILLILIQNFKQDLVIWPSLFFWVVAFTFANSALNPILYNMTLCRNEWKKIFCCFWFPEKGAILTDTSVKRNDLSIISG
Sequence (P32121 whole entry partner): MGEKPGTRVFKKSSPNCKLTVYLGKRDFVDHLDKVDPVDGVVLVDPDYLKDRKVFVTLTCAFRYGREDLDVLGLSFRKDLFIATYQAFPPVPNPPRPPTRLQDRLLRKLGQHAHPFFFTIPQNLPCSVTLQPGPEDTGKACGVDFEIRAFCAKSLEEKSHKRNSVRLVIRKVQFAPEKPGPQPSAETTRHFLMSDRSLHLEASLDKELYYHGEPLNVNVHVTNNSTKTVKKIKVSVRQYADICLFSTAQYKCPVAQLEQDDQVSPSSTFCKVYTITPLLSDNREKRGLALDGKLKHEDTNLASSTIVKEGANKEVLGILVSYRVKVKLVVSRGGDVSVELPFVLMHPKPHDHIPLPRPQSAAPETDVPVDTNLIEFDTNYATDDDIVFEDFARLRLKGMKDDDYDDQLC
Here pEC50 is given on a logarithmic scale as minus log10 of the concentration in mol/L.

Cc1ccccc1-c1snc(C(F)(F)F)c1COc1ccc(CCC(=O)O)c(C(F)(F)F)c1 = 5.83
CC(Cc1ccc(OCc2c(-c3ccc(Cl)cc3)nsc2C(F)(F)F)cc1)C(=O)O (stereo not drawn) = 6.51
O=C(O)CCc1cc(F)c(OCc2c(-c3ccc(Cl)cc3)nsc2C(F)(F)F)c(F)c1F = 7.06
O=C(O)CCc1cc(F)c(OCc2c(-c3ccc(F)c(F)c3)nsc2C(F)(F)F)c(F)c1 = 6.94
COc1cc(OCc2c(Cl)nsc2-c2ccccc2C)ccc1CCC(=O)O = 5.71

Q) Give pEC50 for the following compound: Cc1ccc(-c2nsc(C(F)(F)F)c2COc2c(F)cc(CC(C)C(=O)O)cc2F)c(F)c1 (stereo not drawn)
A) 6.75

Q) Give pEC50 for the following compound: "O=C(O)CCc1ccc(OCc2c(-c3ccc(Cl)cc3)nsc2C(F)(F)F)cc1C(F)(F)F"
A) 6.38

Q) Give pEC50 for the following compound: CC(Cc1cc(F)c(OCc2c(-c3ccc(Cl)c(F)c3)nsc2C(F)(F)F)c(F)c1)C(=O)O (stereo not drawn)
A) 6.81

Q) Give pEC50 for the following compound: "O=C(O)CCc1c(F)c(F)c(OCc2c(-c3ccc(Cl)cc3)nsc2C(F)(F)F)c(F)c1F"
A) 6.74

Q) Give pEC50 for the following compound: "Cc1cc(OCc2c(-c3ccc(Cl)cc3)nsc2C(F)(F)F)c(F)cc1CCCO"
A) 6.91

Q) Give pEC50 for the following compound: "Cc1ccc(-c2snc(C(F)(F)F)c2COc2ccc(CCC(=O)O)c(C(F)(F)F)c2)c(F)c1"
A) 6.14

Q) Give pEC50 for the following compound: "COc1cc(F)c(-c2nsc(C(F)(F)F)c2COc2ccc(CCC(=O)O)c(C)c2C)c(F)c1"
A) 5.74

FYI, the data here is from patent US9067898B1.
